Each recorded value in this set is attributed to the supplement of paper PMC10567573.

B1: TFE3 (parent)
chain: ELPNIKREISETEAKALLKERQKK

- Variants of: B1
- TEST_DETAILS: protein stability index of a GFP-peptide fusion (GPS, HEK-293T) (PSI 1-6); higher = more stable;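 further: lentivirally expressed fusions sorted by FACS into six bins by GFP to DsRed ratio, PSI derived from sequencing read proportions per bin multiplied by bin number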
- MEASUREMENT_PARAMETERS: c terminus: a fixed tail appended
PROPERTY_NAME: protein stability index

1) A14P; 3.06
2) A16R; 3.68
3) E13F; 3.26
4) E20K; 2.83
5) K23S; 2.8
6) I9T; 4.49
7) E11M; 2.78
8) Q22M; 2.75
9) L2K; 5.08
10) K24Q; 2.84
11) E11T; 3.25
12) E8A; 2.49
13) A16D; 4.48
14) P3Y; 3.04
15) A14L; 2.54
16) A16F; 2.08
17) L17N; 2.56
18) L2E; 5.33
19) L17C; 3.09
20) Q22L; 2.24
21) L18N; 2.4
22) Q22R; 2.9
